Where a name gives a salt, the structure may show the parent alone.
melting point by entry:

The following compounds have reported results that may help.
compound	melting point
COc1ccc(C(=O)Cc2c(Cl)cncc2Cl)c2cc(C(=O)c3ccccc3)oc12	213 to 215 °C
COc1ccc(C(=O)Nc2c(Cl)cncc2Cl)c2c1OCC2C (racemic) [Compound 2]	198 to 200 °C
COc1ccc(C#Cc2ccncc2)c2c1OC1(CCCC1)C2 [Compound 142]	128 to 131 °C
COc1ccc(/C=C/c2c(Cl)cncc2Cl)c2c1OCCCO2 [Compound 191]	118 to 120 °C
COc1ccc(C(=O)Nc2cccc(C(=O)O)c2)c2c1OCCO2	283 to 284 °C
CCOC(=O)Cc1coc2c(OC)ccc(C(=O)Cc3ccncc3)c12	111 to 117 °C
COc1ccc(C(=O)Nc2c(Cl)cncc2Cl)c2c1OCC2CC(=O)NCc1ccccc1Cl (racemic) [Compound 31]	288 to 289 °C
COc1ccc(C(=O)NC2CCCCC2)c2c1OCC2CC(=O)O (racemic) [Compound 12]	246 to 247 °C

The compound listed as COc1ccc(C(=O)Cc2c(Cl)cncc2Cl)c2c1OCCCO2 [Compound 189] has a reported melting point of 150 to 151 °C

melting point reading for COc1ccc(C(=O)Nc2c(Cl)cncc2Cl)c2c1CC1(CCCC1)O2 : 156 to 158 °C

Just so you know, measured melting point for COc1ccc(CSc2ccncc2)c2c1OC(C)(C)C2 [Compound 48] came out at 109 to 113 °C

Lab book: melting point of COc1ccc(C(C)=Cc2ccncc2)c2c1OC1(CCCC1)C2 (as salt: salt) [Compound 75] noted as 85 to 87 °C

Sure, the documented melting point for CCC1COc2c(OC)ccc(C(=O)Nc3c(Cl)cncc3Cl)c21 (racemic) [Compound 3] is 202 to 204 °C

The reported melting point of the compound COc1ccc(C(=O)Nc2c(Cl)cncc2Cl)c2c1OCC2CC(=O)O (racemic) [Compound 9] was 259 to 263 °C

Just so you know, measured melting point for COc1ccc(C(=O)Nc2cccc(C(=O)O)c2)c2cc(C(=O)c3ccccc3)oc12 came out at 262 to 263 °C

----------
In this section we review reported melting point values for a set of compounds.

Please review the entries below; each comes with its answer.
compound	melting point
COc1ccc(C(C#N)Cc2c(Cl)cncc2Cl)c2c1OC(C)(C)C2 (racemic)	158 to 162 °C
COc1ccc(C(=O)Nc2c(Cl)cncc2Cl)c2c1OCC2CC(=O)N1CCN(c2ccccc2)CC1 (racemic)	224 °C
COc1ccc(CSc2ccncc2)c2c1OCC2C (racemic)	110 to 112 °C
COc1ccc(C(=O)Nc2ccccc2)c2c1OCC2CC(=O)O (racemic)	248 to 251 °C
COC(=O)c1ccc(-c2ccc(OC)c3c2CC(C)(C)O3)cc1	116 to 122 °C

Per the record, COc1ccc(C(=O)Cc2c(Cl)cncc2Cl)c2c1OC1(CCCCC1)C2 has melting point of 149 to 151 °C

The compound identified as COc1ccc(C(=O)Nc2c(Cl)cncc2Cl)c2c(-c3ccccc3)coc12 registered its melting point at 177 to 179 °C

Noted for COc1ccc(C(=O)Nc2c(C)cccc2C)c2c(CC(=O)OCc3ccccc3)coc12 : its melting point reads 202 to 204 °C

Measured melting point, CCOC(=O)/C(=C/c1ccc(OC)c2c1CC(C)(C)O2)c1ccncc1 : 98 to 100 °C

get_value(item= COc1ccc(C(=O)Cc2c(Cl)cncc2Cl)c2c1OC(C)(C)C2 , readout=melting point) returns 127 to 131 °C

The compound listed as COC1(OC)CC=C(C(Cc2ccncc2)c2ccccc2)C2=C1OC(C)(C)C2 (racemic) shows melting point equal to 78 to 81 °C

Per the record, COc1ccc(C(=O)Cc2c(Cl)cccc2Cl)c2cc(C(=O)c3ccccc3)oc12 has melting point of 223 to 224 °C

Lab note: measured melting point of COc1ccc(C(=O)Nc2ccncc2)c2c1CC1(CCCC1)O2.CS(=O)(=O)O was 164 °C (dec.)

Record COc1ccc(C(=O)Cc2c(Cl)cccc2Cl)c2cc(C(=O)c3ccccn3)oc12 . Reported melting point: 228 to 229 °C

Record summary for COc1ccc(/C=C/c2c(Cl)cncc2Cl)c2cc(-c3ccncc3)oc12 : reported melting point = 204 to 206 °C

Recorded result, COc1ccc(C(=O)Cc2c(Cl)cncc2Cl)c2c(CC(=O)OCc3ccccc3)coc12 , melting point: 132 to 133 °C

Short answer for COc1ccc(CNC(=O)CC2COc3c(OC)ccc(C(=O)Nc4c(Cl)cncc4Cl)c32)cc1 (racemic) : melting point was 269 to 271 °C

Entry under test: COc1ccc(C(=O)Nc2c(Cl)cncc2Cl)c2c1OCC2 . Its melting point was 196 to 197 °C

----------
- Tested on: cAMP-specific phosphodiesterase (PDE IV)
- run_description: Inhibition of the PDE IV enzyme derived from a dog trachea
- Format: biochemical
- condition_parameters: test compound 10^−6 M; PDE IV from dog tracheal smooth muscle; substrate cAMP 1 μM
Threshold check on Enzyme Inhibitory Activity (%, 10^−6 M): strictly below 70% is y; on or above 70% is n.

Solved cases (4 shown):
molecule	target_of_assay	category
COc1ccc(CNC(=O)CC2COc3c(OC)ccc(C(=O)Nc4c(Cl)cncc4Cl)c32)cc1 (racemic) [Compound 28]	cAMP-specific phosphodiesterase (PDE IV)	n
COc1ccc(C(=O)Cc2ccncc2)c2c1OC1(CCCCC1)CC2.Cl [Compound 128]	cAMP-specific phosphodiesterase (PDE IV)	y
COc1ccc(C(=O)Cc2ccncc2)c2cc(-c3ccncc3)oc12.Cl.Cl [Compound 115]	cAMP-specific phosphodiesterase (PDE IV)	n
COc1ccc(C(=O)Nc2c(Cl)cncc2Cl)c2c1OCC2CC(=O)OCc1ccccc1 (racemic) [Compound 13]	cAMP-specific phosphodiesterase (PDE IV)	n

Is Enzyme Inhibitory Activity (%, 10^−6 M) of COc1ccc(C(=O)Nc2c(Cl)cncc2Cl)c2c1OCC2CC(=O)NCc1ccccn1 (racemic) [Compound 24] strictly below 70%?
n

In the record for COc1ccc(C(=O)Nc2c(Cl)cncc2Cl)c2c1OCC2C(C)C (racemic) [Compound 4] , is Enzyme Inhibitory Activity (%, 10^−6 M) less than 70%?
y

Item COc1ccc(/C=C/c2ccncc2)c2c1OC(C)(C)C2 [Compound 68] : Enzyme Inhibitory Activity (%, 10^−6 M) beneath 70%, strictly?
n

----------
- target_of_assay: phosphodiesterase 4A (Homo sapiens, UniProt P27815)
- Construct: made in house; host or cells: E. coli
- Sequence (P27815 224-886 limits assumed): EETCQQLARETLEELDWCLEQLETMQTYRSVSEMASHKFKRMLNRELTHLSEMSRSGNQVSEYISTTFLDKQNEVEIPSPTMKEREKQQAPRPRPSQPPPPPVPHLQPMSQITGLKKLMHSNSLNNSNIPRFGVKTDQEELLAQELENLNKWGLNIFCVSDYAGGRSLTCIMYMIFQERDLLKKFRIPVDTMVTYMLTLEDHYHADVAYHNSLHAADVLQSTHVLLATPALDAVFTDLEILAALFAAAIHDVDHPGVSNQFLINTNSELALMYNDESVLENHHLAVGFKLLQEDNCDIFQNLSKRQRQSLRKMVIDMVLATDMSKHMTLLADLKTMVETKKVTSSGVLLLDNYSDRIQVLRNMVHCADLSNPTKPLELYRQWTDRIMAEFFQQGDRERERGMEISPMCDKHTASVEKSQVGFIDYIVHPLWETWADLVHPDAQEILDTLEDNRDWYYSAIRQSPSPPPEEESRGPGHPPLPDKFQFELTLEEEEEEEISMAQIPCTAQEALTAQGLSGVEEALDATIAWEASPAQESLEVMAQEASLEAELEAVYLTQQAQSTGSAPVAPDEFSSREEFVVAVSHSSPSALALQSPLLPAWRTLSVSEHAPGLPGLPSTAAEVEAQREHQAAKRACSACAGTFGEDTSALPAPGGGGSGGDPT
- run_description: Recombinant human PDE4A assay
- Type: biochemical
observable: Enzyme Inhibitory Activity (%, 10^−7 M)

smiles_repr	target_of_assay	Enzyme Inhibitory Activity (%, 10^−7 M)
COc1ccc(C(=O)Cc2c(Cl)cncc2Cl)c2cc(-c3ccncc3)oc12.Cl.Cl	phosphodiesterase 4A (Homo sapiens, UniProt P27815)	100%
COc1ccc(C(=O)Nc2c(Cl)cncc2Cl)c2c1OC(C)(C)O2	phosphodiesterase 4A (Homo sapiens, UniProt P27815)	57%

# Enzyme Inhibitory Activity (%, 10^−7 M) of COc1ccc(C(=O)Cc2ccncc2)c2c1OC1(CCCC1)O2.Cl = 76%

Noted for COc1ccc(C(=O)Nc2c(Cl)cncc2Cl)c2cc(C(=O)c3ccccc3)oc12 : its Enzyme Inhibitory Activity (%, 10^−7 M) reads 100%

----------
This section presents molecules with their documented melting point values.

For orientation, consider the following solved cases.
molecule	result
COc1ccc(C(=O)Cc2c(Cl)cncc2Cl)c2c(CC(=O)Nc3cccnc3)coc12	252 to 255 °C
COc1ccc(/C=C/c2c(Cl)cncc2Cl)c2c1OC(C)(C)C2	114 to 118 °C
CCCCc1cc2c(C(=O)Nc3c(Cl)cncc3Cl)ccc(OC)c2o1	160 to 164 °C
COc1ccc(C(=O)Nc2c(Cl)cncc2Cl)c2c1OC(C)(C)CC2	155 to 156 °C
COc1ccc(C(=O)Nc2c(Cl)cncc2Cl)c2cc(Cc3ccccc3)oc12	141 to 142 °C
COc1ccc(C(=O)Nc2ccccc2)c2c1OCC2CC(=O)OCc1ccccc1 (racemic)	179 to 180 °C
COc1ccc(CNc2ccncc2)c2c1OCC2C (racemic)	138 to 145 °C
COc1ccc(C(=O)Cc2c(Cl)cccc2Cl)c2cc(C(=O)Nc3cccc(F)c3)oc12	251 to 252 °C

Next up:
Item: COc1ccc(C(=O)Nc2c(Cl)cncc2Cl)c2c1OCC2CC(=O)NCc1cccnc1 (racemic) | melting point: 258 to 261 °C (dec.)

----------
The entries below are paired with their reported melting point.

compound	melting point
COc1ccc(CCc2c(Cl)cncc2Cl)c2c1OC(C)(C)C2	128 to 133 °C
COc1ccc(C(=O)Nc2c(Cl)cncc2Cl)c2c1OCCCCO2	115 to 117 °C
COc1ccc(C=Cc2c(Cl)cncc2Cl)c2c1OC1(CCCC1)O2	100 to 101 °C
COc1ccc(C(=O)Cc2ccncc2)c2c1OC(C)(C)C2	107 to 111 °C
COc1ccc(C(=O)Nc2c(Cl)cncc2Cl)c2c1OCC2CC(=O)NCc1ccc(F)cc1 (racemic)	287 °C
COc1ccc(C(=O)Cc2c(Cl)cccc2Cl)c2c1OCCO2	154 to 155 °C

The measured melting point associated with COc1ccc(C(=O)Nc2c(Cl)cncc2Cl)c2c1OCC2CC(=O)Nc1c(Cl)cncc1Cl (racemic) reads > 300 °C

// sample COc1ccc(C(=O)Cc2c(Cl)cncc2Cl)c2cc(C#N)oc12 , its melting point was 197 to 199 °C

Measured melting point, COc1ccc(C(=O)Cc2ccncc2)c2c1CC1(CCCC1)O2 : 101 to 103 °C

The compound identified as COc1ccc(/C=C/C(=O)Nc2ccncc2)c2c1OC1(CCCC1)C2 registered its melting point at 124 to 128 °C

Cited source for all entries: patent US6716987B1
